Biological target: Yer064c (UniProt P40041)
Sequence: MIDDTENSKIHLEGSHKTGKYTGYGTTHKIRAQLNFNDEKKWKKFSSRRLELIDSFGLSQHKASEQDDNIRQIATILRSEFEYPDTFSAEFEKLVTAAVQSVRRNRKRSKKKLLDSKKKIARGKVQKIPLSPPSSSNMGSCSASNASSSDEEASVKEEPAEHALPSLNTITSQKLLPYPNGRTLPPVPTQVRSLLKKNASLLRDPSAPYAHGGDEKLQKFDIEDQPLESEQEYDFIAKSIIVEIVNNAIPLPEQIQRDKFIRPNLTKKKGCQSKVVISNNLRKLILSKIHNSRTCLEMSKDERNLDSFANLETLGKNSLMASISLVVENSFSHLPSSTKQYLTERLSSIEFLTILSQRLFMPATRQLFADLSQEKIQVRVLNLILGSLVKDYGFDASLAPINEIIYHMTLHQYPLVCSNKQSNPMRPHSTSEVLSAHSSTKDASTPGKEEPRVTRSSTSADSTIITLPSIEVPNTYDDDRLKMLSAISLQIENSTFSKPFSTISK
Assay: PBM E-score (8-mer binding enrichment) (E-score (-0.5 to 0.5)); higher = stronger / more preferred TF binding
Conditions: protein concentration: 200 nM; construct: GST-full length
The full ranking holds about 33,000 sequences; the median of “E-score (-0.5 to 0.5)” is about -0.036, and the highest 2% start at about 0.37. The list comes from a sample in which the highest values are over-represented; it also holds close analogues and randomly drawn sequences.
test-readout: PBM E-score

[[record]]
sequence_text = "CAGACTGC"
numeric_readout = 0.0507

[[record]]
sequence_text = "CACTCAGA"
numeric_readout = 0.0961

[[record]]
sequence_text = "ATGACTGA"
numeric_readout = 0.464

[[record]]
sequence_text = "GACTCAGA"
numeric_readout = 0.458

[[record]]
sequence_text = "ACCAGACT"
numeric_readout = 0.0775

[[record]]
sequence_text = "AACTCAGC"
numeric_readout = 0.022

[[record]]
sequence_text = "CGTCATCA"
numeric_readout = -0.004

[[record]]
sequence_text = "CATTCACA"
numeric_readout = -0.00304

[[record]]
sequence_text = "ATTACTCG"
numeric_readout = 0.202

[[record]]
sequence_text = "CGCCTTTA"
numeric_readout = 0.0724

[[record]]
sequence_text = "GACTCAGC"
numeric_readout = 0.457

[[record]]
sequence_text = "CCCTCCCA"
numeric_readout = -0.298

[[record]]
sequence_text = "CGTCATCC"
numeric_readout = -0.131

[[record]]
sequence_text = "CAGATGAC"
numeric_readout = 0.215

[[record]]
sequence_text = "AGGCATCG"
numeric_readout = -0.125

[[record]]
sequence_text = "GATTCACC"
numeric_readout = 0.372

[[record]]
sequence_text = "CATTCACG"
numeric_readout = 0.0972

[[record]]
sequence_text = "GCGGTTAC"
numeric_readout = 0.0193

[[record]]
sequence_text = "AGGACTCG"
numeric_readout = 0.306

[[record]]
sequence_text = "ATTCATCG"
numeric_readout = 0.205

[[record]]
sequence_text = "AGGACTGC"
numeric_readout = 0.13

[[record]]
sequence_text = "AACTCAGA"
numeric_readout = 0.164


###

Biological target: Yer064c (UniProt P40041)
Sequence: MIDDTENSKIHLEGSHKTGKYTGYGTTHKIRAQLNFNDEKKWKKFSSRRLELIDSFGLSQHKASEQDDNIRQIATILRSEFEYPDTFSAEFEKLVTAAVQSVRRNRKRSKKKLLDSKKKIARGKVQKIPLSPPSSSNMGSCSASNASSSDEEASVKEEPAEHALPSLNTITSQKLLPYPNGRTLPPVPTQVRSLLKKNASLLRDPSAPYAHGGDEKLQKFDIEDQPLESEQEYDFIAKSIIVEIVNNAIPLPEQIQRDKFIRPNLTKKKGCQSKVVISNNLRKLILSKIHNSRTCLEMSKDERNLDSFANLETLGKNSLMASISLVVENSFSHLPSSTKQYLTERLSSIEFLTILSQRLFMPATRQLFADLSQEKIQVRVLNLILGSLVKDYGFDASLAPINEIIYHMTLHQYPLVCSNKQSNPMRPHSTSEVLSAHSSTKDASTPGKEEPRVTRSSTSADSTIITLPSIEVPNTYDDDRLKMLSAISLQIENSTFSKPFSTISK
Assay: PBM E-score (8-mer binding enrichment) (E-score (-0.5 to 0.5)); higher = stronger / more preferred TF binding
Conditions: protein concentration: 200 nM; construct: GST-full length
Over roughly 33,000 sequences, “E-score (-0.5 to 0.5)” has its median near -0.036; the highest 2% begin near 0.37. The full list was thinned out, with the highest values kept by preference.
The threshold is inclusive: PBM E-score of exactly 0.06 counts as YES; values below receive NO.

[[record]]
sequence_text = "CATCAGCA"
answer_label = "NO"

[[record]]
sequence_text = "CAGTCATC"
answer_label = "YES"

[[record]]
sequence_text = "GACGGTAA"
answer_label = "NO"

[[record]]
sequence_text = "AAGCGACA"
answer_label = "NO"

[[record]]
sequence_text = "CACTAATC"
answer_label = "YES"

[[record]]
sequence_text = "CGGGCTCC"
answer_label = "NO"

[[record]]
sequence_text = "CGAGCAGA"
answer_label = "NO"

[[record]]
sequence_text = "CACTAATA"
answer_label = "YES"

[[record]]
sequence_text = "CTGAGAGA"
answer_label = "NO"

[[record]]
sequence_text = "ATAATCAC"
answer_label = "YES"

[[record]]
sequence_text = "CCTCACCC"
answer_label = "NO"

[[record]]
sequence_text = "TCTCACCA"
answer_label = "NO"

[[record]]
sequence_text = "AGGAGTAA"
answer_label = "YES"

[[record]]
sequence_text = "AAATCATC"
answer_label = "YES"

[[record]]
sequence_text = "GGTGAAAA"
answer_label = "NO"

[[record]]
sequence_text = "AGCGATCA"
answer_label = "NO"

[[record]]
sequence_text = "CACCTTGG"
answer_label = "NO"

[[record]]
sequence_text = "ACATCATC"
answer_label = "YES"

[[record]]
sequence_text = "AAAGTGAG"
answer_label = "YES"

[[record]]
sequence_text = "TAACAGTA"
answer_label = "NO"

[[record]]
sequence_text = "CAATCAAG"
answer_label = "YES"

[[record]]
sequence_text = "CCGGATTA"
answer_label = "NO"

[[record]]
sequence_text = "CCAAGTTA"
answer_label = "NO"

[[record]]
sequence_text = "ATAATCTC"
answer_label = "YES"

[[record]]
sequence_text = "ATAATCCC"
answer_label = "NO"

[[record]]
sequence_text = "CAATCAGG"
answer_label = "YES"

[[record]]
sequence_text = "CTTTAGCA"
answer_label = "NO"

[[record]]
sequence_text = "CAATCGAC"
answer_label = "YES"

[[record]]
sequence_text = "CAATCATG"
answer_label = "YES"

[[record]]
sequence_text = "GGACCTAC"
answer_label = "NO"

[[record]]
sequence_text = "ACGCGACA"
answer_label = "NO"

[[record]]
sequence_text = "AGGAGTCA"
answer_label = "YES"

[[record]]
sequence_text = "ACGCTATG"
answer_label = "NO"

[[record]]
sequence_text = "CCTGAGTC"
answer_label = "YES"

[[record]]
sequence_text = "CCGGCAAG"
answer_label = "NO"

[[record]]
sequence_text = "AGTAAACC"
answer_label = "NO"

[[record]]
sequence_text = "GTGGTGGA"
answer_label = "NO"

[[record]]
sequence_text = "TATTCCCA"
answer_label = "NO"

[[record]]
sequence_text = "AACTAATC"
answer_label = "YES"

[[record]]
sequence_text = "GTTCAAGA"
answer_label = "NO"

[[record]]
sequence_text = "GAGGACAA"
answer_label = "NO"

[[record]]
sequence_text = "CTAATCAG"
answer_label = "YES"

[[record]]
sequence_text = "CAACGTGC"
answer_label = "NO"

[[record]]
sequence_text = "CTCGTAAC"
answer_label = "YES"

[[record]]
sequence_text = "ATTAGAAT"
answer_label = "YES"

[[record]]
sequence_text = "ACGCGACG"
answer_label = "NO"

[[record]]
sequence_text = "CCCGCGAA"
answer_label = "YES"

[[record]]
sequence_text = "ACAGTCAG"
answer_label = "YES"

[[record]]
sequence_text = "CACCAACC"
answer_label = "NO"

[[record]]
sequence_text = "CTCTGTCC"
answer_label = "NO"

[[record]]
sequence_text = "CAGACACG"
answer_label = "NO"

[[record]]
sequence_text = "ACTCACCA"
answer_label = "YES"

[[record]]
sequence_text = "ACATTCAT"
answer_label = "YES"

[[record]]
sequence_text = "GGCATACA"
answer_label = "NO"

[[record]]
sequence_text = "AATATCCG"
answer_label = "NO"

[[record]]
sequence_text = "CAAACCGC"
answer_label = "NO"

[[record]]
sequence_text = "ATAATCAA"
answer_label = "YES"

[[record]]
sequence_text = "CCAGTCAG"
answer_label = "YES"

[[record]]
sequence_text = "GTACCGCA"
answer_label = "NO"

[[record]]
sequence_text = "ACTGATTA"
answer_label = "YES"

[[record]]
sequence_text = "GCAGTCAA"
answer_label = "YES"

[[record]]
sequence_text = "GACTAATA"
answer_label = "YES"

[[record]]
sequence_text = "GCATCATA"
answer_label = "YES"

[[record]]
sequence_text = "CTAATCGC"
answer_label = "YES"

[[record]]
sequence_text = "ACAGTCGT"
answer_label = "YES"

[[record]]
sequence_text = "CCAGTCAC"
answer_label = "YES"

[[record]]
sequence_text = "ACAGTCAC"
answer_label = "YES"

[[record]]
sequence_text = "CATGTTCC"
answer_label = "NO"

[[record]]
sequence_text = "ACAGTCAA"
answer_label = "YES"

[[record]]
sequence_text = "GAAAGAAA"
answer_label = "NO"

[[record]]
sequence_text = "GGAGGACC"
answer_label = "NO"

[[record]]
sequence_text = "GAACCAGA"
answer_label = "NO"

[[record]]
sequence_text = "AGGAGTCC"
answer_label = "YES"

[[record]]
sequence_text = "TAATTCAA"
answer_label = "YES"

[[record]]
sequence_text = "AAATCAAG"
answer_label = "NO"

[[record]]
sequence_text = "GACGAAGA"
answer_label = "YES"

[[record]]
sequence_text = "ATTCAGAA"
answer_label = "YES"

[[record]]
sequence_text = "CCTCACCA"
answer_label = "NO"

[[record]]
sequence_text = "AAATCATT"
answer_label = "YES"

[[record]]
sequence_text = "CCTGAGGC"
answer_label = "NO"

[[record]]
sequence_text = "ACTGAGTA"
answer_label = "YES"

[[record]]
sequence_text = "GATTTGGA"
answer_label = "YES"

[[record]]
sequence_text = "TACTGATA"
answer_label = "YES"

[[record]]
sequence_text = "ACTCACCT"
answer_label = "YES"

[[record]]
sequence_text = "ATGTGGAG"
answer_label = "YES"

[[record]]
sequence_text = "ACTGAGTC"
answer_label = "YES"

[[record]]
sequence_text = "GACTAATC"
answer_label = "YES"

[[record]]
sequence_text = "ACTAAGTA"
answer_label = "YES"

[[record]]
sequence_text = "ATATCATC"
answer_label = "NO"

[[record]]
sequence_text = "ACGAAGGG"
answer_label = "NO"

[[record]]
sequence_text = "AGTGGGCC"
answer_label = "NO"

